# System: 299254-011-R-J1-PDC complex spheroid viability
# assay.name: Anticancer human tumor 299254-011-R-J1-PDC patient-derived melanoma cell line growth inhibition [POLQ]
# study.conditions: second compound 3.16 µM; first compound 1 µM; stronger effect = lower value
Output YES for records whose viability, T/C is lower than 90%, NO for records at or above 90%.

Q: Given the entry O=C(c1cc(Cc2n[nH]c(=O)c3ccccc23)ccc1F)N1CCN(C(=O)C2CC2)CC1 + Cc1cccc(N(C)C(=O)C2C(O)CCN2c2nc(C)cc(C(F)(F)F)c2C#N)c1 , would its reported viability, T/C be below 90%?
A: NO

Q: Given the entry CCCS(=O)(=O)Nc1ccc(F)c(C(=O)c2c[nH]c3ncc(-c4ccc(Cl)cc4)cc23)c1F + COC1C(OC(N)=O)C(O)C(Oc2ccc3c(O)c(NC(=O)c4ccc(O)c(CC=C(C)C)c4)c(=O)oc3c2C)OC1(C)C , would its reported viability, T/C be below 90%?
A: NO

Q: Given the entry C#Cc1c(F)ccc2cc(O)cc(-c3ncc4c(N5CC6CCC(C5)N6)nc(OCC56CCCN5CC(F)C6)nc4c3F)c12 (stereo not given) + COC1C(OC(N)=O)C(O)C(Oc2ccc3c(O)c(NC(=O)c4ccc(O)c(CC=C(C)C)c4)c(=O)oc3c2C)OC1(C)C , would its reported viability, T/C be below 90%?
A: NO

Q: Given the entry O=c1[nH]cc(F)c(=O)[nH]1 + Nc1ccc(C#CCN(C(=O)Cc2ncc(C(F)(F)F)cc2C(F)(F)F)c2ccc(F)cc2)nn1 , would its reported viability, T/C be below 90%?
A: NO

Q: Given the entry CC(C)n1c(=O)n(C)c2cnc3cc(F)c(-c4ccc(OCCCN5CCCCC5)nc4)cc3c21 + Cc1cccc(N(C)C(=O)C2C(O)CCN2c2nc(C)cc(C(F)(F)F)c2C#N)c1 , would its reported viability, T/C be below 90%?
A: NO

Q: Given the entry O=C(Nc1ccc(O)c(NS(=O)(=O)c2ccc(F)cc2)c1)c1ccc(-c2ccccc2)cc1 + COC1C(OC(N)=O)C(O)C(Oc2ccc3c(O)c(NC(=O)c4ccc(O)c(CC=C(C)C)c4)c(=O)oc3c2C)OC1(C)C , would its reported viability, T/C be below 90%?
A: NO

Q: Given the entry C=CC(=O)N1CCN(c2nc(=O)n(-c3c(C)ccnc3C(C)C)c3nc(-c4c(O)cccc4F)c(F)cc23)C(C)C1 (stereo not given) + Nc1ccc(C#CCN(C(=O)Cc2ncc(C(F)(F)F)cc2C(F)(F)F)c2ccc(F)cc2)nn1 , would its reported viability, T/C be below 90%?
A: YES

Q: Given the entry CNCc1ccc(-c2[nH]c3cc(F)cc4c3c2CCNC4=O)cc1 + Cc1cccc(N(C)C(=O)C2C(O)CCN2c2nc(C)cc(C(F)(F)F)c2C#N)c1 , would its reported viability, T/C be below 90%?
A: NO

Q: Given the entry COc1cccc(OCCCN)c1-c1cc(Nc2cnc(C#N)cn2)n[nH]1 + COC1C(OC(N)=O)C(O)C(Oc2ccc3c(O)c(NC(=O)c4ccc(O)c(CC=C(C)C)c4)c(=O)oc3c2C)OC1(C)C , would its reported viability, T/C be below 90%?
A: YES

Q: Given the entry C#Cc1c(F)ccc2cc(O)cc(-c3ncc4c(N5CC6CCC(C5)N6)nc(OCC56CCCN5CC(F)C6)nc4c3F)c12 (stereo not given) + Cc1cccc(N(C)C(=O)C2C(O)CCN2c2nc(C)cc(C(F)(F)F)c2C#N)c1 , would its reported viability, T/C be below 90%?
A: NO

Q: Given the entry CC1COCCN1c1cc(-c2ccnn2C)c2ccnc(-c3ccn[nH]3)c2n1 (stereo not given) + COC1C(OC(N)=O)C(O)C(Oc2ccc3c(O)c(NC(=O)c4ccc(O)c(CC=C(C)C)c4)c(=O)oc3c2C)OC1(C)C , would its reported viability, T/C be below 90%?
A: YES

Q: Given the entry COc1cccc(OCCCN)c1-c1cc(Nc2cnc(C#N)cn2)n[nH]1 + Nc1ccc(C#CCN(C(=O)Cc2ncc(C(F)(F)F)cc2C(F)(F)F)c2ccc(F)cc2)nn1 , would its reported viability, T/C be below 90%?
A: YES

Q: Given the entry C=CC(=O)N1CCN(c2nc(=O)n(-c3c(C)ccnc3C(C)C)c3nc(-c4c(O)cccc4F)c(F)cc23)C(C)C1 (stereo not given) + COC1C(OC(N)=O)C(O)C(Oc2ccc3c(O)c(NC(=O)c4ccc(O)c(CC=C(C)C)c4)c(=O)oc3c2C)OC1(C)C , would its reported viability, T/C be below 90%?
A: YES

Q: Given the entry COc1cc(C2c3cc4c(cc3C(OC3OC5COC(C)OC5C(O)C3O)C3COC(=O)C23)OCO4)cc(OC)c1O (stereo not given) + Cc1cccc(N(C)C(=O)C2C(O)CCN2c2nc(C)cc(C(F)(F)F)c2C#N)c1 , would its reported viability, T/C be below 90%?
A: NO

Q: Given the entry CC1COCCN1c1cc(C2(S(C)(=N)=O)CC2)nc(-c2ccnc3[nH]ccc23)n1 (stereo not given) + COC1C(OC(N)=O)C(O)C(Oc2ccc3c(O)c(NC(=O)c4ccc(O)c(CC=C(C)C)c4)c(=O)oc3c2C)OC1(C)C , would its reported viability, T/C be below 90%?
A: NO

Q: Given the entry CC(C)n1c(=O)n(C)c2cnc3cc(F)c(-c4ccc(OCCCN5CCCCC5)nc4)cc3c21 + Nc1ccc(C#CCN(C(=O)Cc2ncc(C(F)(F)F)cc2C(F)(F)F)c2ccc(F)cc2)nn1 , would its reported viability, T/C be below 90%?
A: NO

Q: Given the entry CCc1cc2c(N3CCc4c(cc(Cn5ccnc5)cc4-c4cn(C)nc4C(F)(F)F)C3=O)ccnc2c(OC)n1 + Cc1cccc(N(C)C(=O)C2C(O)CCN2c2nc(C)cc(C(F)(F)F)c2C#N)c1 , would its reported viability, T/C be below 90%?
A: NO

Q: Given the entry CCc1cc2c(N3CCc4c(cc(Cn5ccnc5)cc4-c4cn(C)nc4C(F)(F)F)C3=O)cc(C)nc2c(OC)n1 + Nc1ccc(C#CCN(C(=O)Cc2ncc(C(F)(F)F)cc2C(F)(F)F)c2ccc(F)cc2)nn1 , would its reported viability, T/C be below 90%?
A: YES

Q: Given the entry O=c1[nH]cc(F)c(=O)[nH]1 + Cc1cccc(N(C)C(=O)C2C(O)CCN2c2nc(C)cc(C(F)(F)F)c2C#N)c1 , would its reported viability, T/C be below 90%?
A: NO

----------
# System: 299254-011-R-J1-PDC complex spheroid viability
# assay.name: Anticancer human tumor 299254-011-R-J1-PDC cell line growth inhibition [POLQ];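 note: spheroids exposed to drugs for one week before measurement; percent viability relative to DMSO vehicle control taken as 100%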
# study.conditions: second compound 0.316 µM; first compound 10 µM; stronger effect = lower value
measured.property: viability, T/C (%)
The figure you give is taken to be in %; do not add the unit.

Q: Short answer please: viability, T/C, 299254-011-R-J1-PDC complex spheroid viability, entry CNCc1ccc(-c2[nH]c3cc(F)cc4c3c2CCNC4=O)cc1 + COC1C(OC(N)=O)C(O)C(Oc2ccc3c(O)c(NC(=O)c4ccc(O)c(CC=C(C)C)c4)c(=O)oc3c2C)OC1(C)C
A: 116

Q: Short answer please: viability, T/C, 299254-011-R-J1-PDC complex spheroid viability, entry CCc1cc2c(N3CCc4c(cc(Cn5ccnc5)cc4-c4cn(C)nc4C(F)(F)F)C3=O)cc(C)nc2c(OC)n1 + COC1C(OC(N)=O)C(O)C(Oc2ccc3c(O)c(NC(=O)c4ccc(O)c(CC=C(C)C)c4)c(=O)oc3c2C)OC1(C)C
A: 66.8

Q: Short answer please: viability, T/C, 299254-011-R-J1-PDC complex spheroid viability, entry O=C(Nc1ccc(O)c(NS(=O)(=O)c2ccc(F)cc2)c1)c1ccc(-c2ccccc2)cc1 + COC1C(OC(N)=O)C(O)C(Oc2ccc3c(O)c(NC(=O)c4ccc(O)c(CC=C(C)C)c4)c(=O)oc3c2C)OC1(C)C
A: 42.6

----------
# System: 299254-011-R-J1-PDC complex spheroid viability
# assay.name: Anticancer human tumor 299254-011-R-J1-PDC cell line growth inhibition [POLQ];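 note: spheroids exposed to drugs for one week before measurement; percent viability relative to DMSO vehicle control taken as 100%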
# study.conditions: second compound 10 µM; first compound 10 µM; stronger effect = lower value
# Description: Multicellular complex tumor spheroid response to Polymerase (POL) inhibitors (novobiocin, ART-558, RP6685) in combination with a variety of drugs and investigational agents in selected tumor cell lines The POL inhibitors (novobiocin, ART-558, and RP6685) were evaluated both individually and in combination with standard of care and investigational anticancer small molecules within a complex spheroid model of solid tumors. . […]
Output y for records whose viability, T/C is lower than 40%, n for records at or above 40%.

Q: Given the entry CC1COCCN1c1cc(-c2ccnn2C)c2ccnc(-c3ccn[nH]3)c2n1 (stereo not given) + Nc1ccc(C#CCN(C(=O)Cc2ncc(C(F)(F)F)cc2C(F)(F)F)c2ccc(F)cc2)nn1 , would its reported viability, T/C be below 40%?
A: y

Q: Given the entry O=c1[nH]cc(F)c(=O)[nH]1 + Cc1cccc(N(C)C(=O)C2C(O)CCN2c2nc(C)cc(C(F)(F)F)c2C#N)c1 , would its reported viability, T/C be below 40%?
A: n

Q: Given the entry COc1cccc2c1C(=O)c1c(O)c3c(c(O)c1C2=O)CC(O)(C(=O)CO)CC3OC1CC(N)C(O)C(C)O1 (stereo not given) + COC1C(OC(N)=O)C(O)C(Oc2ccc3c(O)c(NC(=O)c4ccc(O)c(CC=C(C)C)c4)c(=O)oc3c2C)OC1(C)C , would its reported viability, T/C be below 40%?
A: y

Q: Given the entry CC1COCCN1c1cc(C2(S(C)(=N)=O)CC2)nc(-c2ccnc3[nH]ccc23)n1 (stereo not given) + COC1C(OC(N)=O)C(O)C(Oc2ccc3c(O)c(NC(=O)c4ccc(O)c(CC=C(C)C)c4)c(=O)oc3c2C)OC1(C)C , would its reported viability, T/C be below 40%?
A: y

Q: Given the entry O=C(c1cc(Cc2n[nH]c(=O)c3ccccc23)ccc1F)N1CCN(C(=O)C2CC2)CC1 + Nc1ccc(C#CCN(C(=O)Cc2ncc(C(F)(F)F)cc2C(F)(F)F)c2ccc(F)cc2)nn1 , would its reported viability, T/C be below 40%?
A: n
